tested on: vaccinia virus WR; assay: microbe, parasite or virus in culture; assay type: cell-based; conditions: Orthopoxvirus vaccinia, BSC-1, 20 h, read-out: cell prot EC50
Observation type: EC50 (µM)

{"Compound": "Cc1csc2c(N3CCN(C(=O)NC(C)(C)C)CC3)ncnc12", "Observation type": "EC50", "Quantitative result": 50}
{"Compound": "O=C1/C(=C/C2CCCO2)CC/C1=C\\C1CCCO1 (stereo not shown)", "Observation type": "EC50", "Quantitative result": 100}
{"Compound": "CCS(=O)(=O)N1CCN=C1SCc1ccc(Cl)cc1Cl", "Observation type": "EC50", "Quantitative result": 90}
{"Compound": "N=C1S/C(=C/c2ccco2)C(=O)N1c1nccs1", "Observation type": "EC50", "Quantitative result": 80}
{"Compound": "Cc1cc(OC(=O)c2ccco2)nc(SCc2c(Cl)cccc2Cl)n1", "Observation type": "EC50", "Quantitative result": 100}
{"Compound": "N=C1/C(=C/c2coc3ccccc3c2=O)C(=O)N=C2SC=NN12", "Observation type": "EC50", "Quantitative result": 188}
{"Compound": "Cc1c(/N=C/c2cc(Br)cc(Br)c2Br)cccc1C(=O)O", "Observation type": "EC50", "Quantitative result": 100}

###

target: vaccinia virus DNA synthesis (viral DNA polymerase and its associated factors) (Vaccinia virus); type: biochemical; conditions: read-out: DNA Synthesis Inhibition IC50
pIC50: −log10 of the molar value.
This section presents molecules with their documented pIC50 values.
Observation type: pIC50

{"Molecule": "Cc1cc(/N=C/c2cc(Cl)cc(Cl)c2O)no1 [Compound 6]", "Quantitative result": 4.52}
{"Molecule": "Cc1csc2c(N3CCN(C(=O)NC(C)(C)C)CC3)ncnc12 [Compound 4]", "Quantitative result": 4.92}
{"Molecule": "Cc1ccc2c(Sc3ccc(Cl)cc3)c(C(=O)O)[nH]c2c1 [Compound 11]", "Quantitative result": 4.37}
{"Molecule": "CCn1c2ccccc2c2ccc(/C=N/n3cnnc3)cc21 [Compound 3]", "Quantitative result": 3.88}
{"Molecule": "O=C(Nc1ccccc1C(=O)O)OCC1c2ccccc2-c2ccccc21 [Compound 9]", "Quantitative result": 4.59}
{"Molecule": "N=C1S/C(=C/c2ccco2)C(=O)N1c1nccs1 [Compound 12]", "Quantitative result": 4.49}
{"Molecule": "O=C1/C(=C/C2CCCO2)CC/C1=C\\C1CCCO1 (stereo not shown) [Compound 16]", "Quantitative result": 3.62}
{"Molecule": "COC(=O)c1cccc2c1-c1ccccc1/C2=N\\O [Compound 1]", "Quantitative result": 3.97}
{"Molecule": "CC(=O)n1c2ccccc2c2nc(C)sc21 [Compound 15]", "Quantitative result": 3.95}
{"Molecule": "CCNc1nc(SCc2ccc(Cl)cc2)nc2sc3c(c12)CCN(C)C3 [Compound 5]", "Quantitative result": 3.89}

###

test system: BS-C-1 cells; assay: WST-1 cytotoxicity assay; details: 20 h, Table 6
This section presents molecules with their documented tox 20 h TC50 values.

{"Smiles string": "Cc1c(/N=C/c2cc(Br)cc(Br)c2Br)cccc1C(=O)O", "Target or system": "BS-C-1 cells", "tox 20 h TC50": ">200 µM"}
{"Smiles string": "CCOC(=O)c1c(NC(=O)/C=C/C(=O)O)sc(C)c1-c1ccccc1", "Target or system": "BS-C-1 cells", "tox 20 h TC50": "159 µM"}
{"Smiles string": "CCS(=O)(=O)N1CCN=C1SCc1ccc(Cl)cc1Cl", "Target or system": "BS-C-1 cells", "tox 20 h TC50": "166 µM"}
{"Smiles string": "N=C1S/C(=C/c2ccco2)C(=O)N1c1nccs1", "Target or system": "BS-C-1 cells", "tox 20 h TC50": ">100 µM"}
{"Smiles string": "Cc1ccc2c(Sc3ccc(Cl)cc3)c(C(=O)O)[nH]c2c1", "Target or system": "BS-C-1 cells", "tox 20 h TC50": ">200 µM"}
{"Smiles string": "CCn1c2ccccc2c2ccc(/C=N/n3cnnc3)cc21", "Target or system": "BS-C-1 cells", "tox 20 h TC50": ">200 µM"}
{"Smiles string": "Cc1csc2c(N3CCN(C(=O)NC(C)(C)C)CC3)ncnc12", "Target or system": "BS-C-1 cells", "tox 20 h TC50": "157 µM"}
{"Smiles string": "CC(=O)n1c2ccccc2c2nc(C)sc21", "Target or system": "BS-C-1 cells", "tox 20 h TC50": ">200 µM"}
